- protocol details: LEN plasma concentrations during oral bridging period, CALIBRATE (Phase 2, ARV-naive PWH)
- Format: in vivo
- protocol conditions: human, plasma, oral, 300 mg, Treatment Group 1, Week 20, read-out: Mean LEN plasma concentration
observation type: concentration at 20 week (ng/mL)
Respond numerically; units are ng/mL and should not be typed.

What does the data say about its concentration at 20 week? Entry: CC(C)(C#Cc1ccc(-c2ccc(Cl)c3c(NS(C)(=O)=O)nn(CC(F)(F)F)c23)c([C@H](Cc2cc(F)cc(F)c2)NC(=O)Cn2nc(C(F)(F)F)c3c2C(F)(F)[C@@H]2C[C@H]32)n1)S(C)(=O)=O 53.1

* * *

- protocol details: clinical
- protocol conditions: human, in vivo, po, Lower 90% CI of Concentration
observation type: concentration at 30 day (ng/mL)
Respond numerically; units are ng/mL and should not be typed.

What does the data say about its concentration at 30 day? Entry: CC(C)(C#Cc1ccc(-c2ccc(Cl)c3c(NS(C)(=O)=O)nn(CC(F)(F)F)c23)c([C@H](Cc2cc(F)cc(F)c2)NC(=O)Cn2nc(C(F)(F)F)c3c2C(F)(F)[C@@H]2C[C@H]32)n1)S(C)(=O)=O [LEN] 29.9
